# test-method-notes: qHTS assay to test for compound auto fluorescence at 535 nm (green) in HepG2 cells (AID 720675); note: % is set by controls: 0 for no effect and ±100 for the full control effect
# condition-details: green autofluorescence 485/535 nm, 1 h; series mostly up to 91.3 µM
Calls of active or inactive are those of the source. Calls come from the whole dose curve; as a rule, active = well fitted curve in the direction sought with a large enough effect in the repeat runs; inconclusive = weak or mixed curves; inactive = flat fitted curve, though single readings scatter.
property: fluorescence, % of fluorescein control

// known answers, use as guide
- chemical-smiles: "CC(C)(CO)[C@@H](O)C(=O)NCCC(=O)O"
  observed-value: "inactive"
- chemical-smiles: "CCN[C@H]1CN(CCCOC)S(=O)(=O)c2sc(S(N)(=O)=O)cc21"
  observed-value: "-0.244% [at 18.6 µM] (inactive)"
- chemical-smiles: "O=[N+]([O-])c1nccn1CO[C@@H](CO)[C@H](O)CO"
  observed-value: "inactive"
- chemical-smiles: "Clc1cccc(-c2cc(Cl)cc(Cl)c2)c1"
  observed-value: "inactive"
- chemical-smiles: "CN(C)CC[C@@H](c1ccc(Cl)cc1)c1ccccn1"
  observed-value: "inactive"
- chemical-smiles: "OCc1c2ccccc2cc2ccccc12"
  observed-value: "inactive"
- chemical-smiles: "CC(C)NC[C@@H](O)COc1cccc2ccccc12"
  observed-value: "inactive"
- chemical-smiles: "Cc1ccsc1C(=CCCN1CCC[C@@H](C(=O)O)C1)c1sccc1C"
  observed-value: "inactive"
- chemical-smiles: "O=C(C(Cl)Cl)N1CCOC12CCCCC2"
  observed-value: "inactive"
- chemical-smiles: "COc1cc(N)c(Cl)cc1C(=O)NC1CCN(Cc2ccccc2)CC1"
  observed-value: "0.0143% [at 18.6 µM] (inactive)"

Exercise: Answer with the recorded fluorescence, % of fluorescein control for the compound listed here: COc1ccc(Nc2ccc(OC)cc2)cc1
Solution: inactive

Exercise: Answer with the recorded fluorescence, % of fluorescein control for the compound listed here: CC(=O)OC(C)OC(C)=O
Solution: inactive

Exercise: Answer with the recorded fluorescence, % of fluorescein control for the compound listed here: CC(C)(C)c1cccc(O)c1
Solution: inactive

----------
# test-method-notes: qHTS assay to identify small molecule antagonists of the progesterone receptor (PR) signaling pathway - cell viability counter screen (AID 1346798); note: nearly all actives have a fitted effect of over 50% in size
# condition-details: PR-UAS-bla HEK293T viability, CellTiter-Glo luminescence, 16 h; series mostly up to 42.5 µM
Records with an inconclusive call do not appear. Activity calls are given as the source filed them. The call rests on the fitted dose curve; in most records, active means well fitted cell-killing curve with a large enough effect in the repeat runs; inconclusive means weak or mixed curves, or effect the other way; inactive means no such curve, though single readings can be large or run the other way.
Respond with a class label; see true = active, false = inactive

Exercise: Which outcome was entered for the compound O=C1CCCCC1C1CCCCC1 (centres undefined) in this test?
Solution: false

Exercise: Which outcome was entered for the compound COC(=O)/C=C(/C)N in this test?
Solution: false

Exercise: Which outcome was entered for the compound CC1=CC(=O)CC(C)(C)C1=O in this test?
Solution: false

Exercise: Which outcome was entered for the compound C[C@@H]1CN(c2c(F)c(F)c3c(=O)c(C(=O)O)cn(C4CC4)c3c2F)C[C@H](C)N1 in this test?
Solution: false

Exercise: Which outcome was entered for the compound O=C(O)c1cccc(Cl)c1Cl in this test?
Solution: false

Exercise: Which outcome was entered for the compound CC(Oc1c(Cl)cccc1Cl)C1=NCCN1 (centres undefined) in this test?
Solution: true

Exercise: Which outcome was entered for the compound CC(C)(C)c1ccc(OC(=O)c2ccccc2O)cc1 in this test?
Solution: false

Exercise: Which outcome was entered for the compound O=C(O)[C@@H](O)[C@H](O)[C@H](O)[C@@H](O)C(=O)O in this test?
Solution: false

Exercise: Which outcome was entered for the compound CCOc1ccc2nc(N)sc2c1 in this test?
Solution: false

Exercise: Which outcome was entered for the compound O=C(O)[C@@H]1CSCN1 in this test?
Solution: false

Exercise: Which outcome was entered for the compound CN1CCN(N)CC1 in this test?
Solution: false

Exercise: Which outcome was entered for the compound CC(C)OC(C)C in this test?
Solution: false

Exercise: Which outcome was entered for the compound CN(C)CC[C@@H](c1ccc(Cl)cc1)c1ccccn1 in this test?
Solution: false

Exercise: Which outcome was entered for the compound CCCCCCCCCCCCOCCOS(=O)(=O)O in this test?
Solution: false

----------
# test-method-notes: qHTS assay to identify small molecule antagonists of the thyroid receptor (TR) signaling pathway (AID 743065); note: nearly all actives have a fitted effect of over 55% in size
# condition-details: GH3.TRE-Luc, T3-stimulated luciferase inhibition, 23.5 h; series mostly up to 70.3 µM
Results filed as inconclusive are left out. Active and inactive are the calls of the source. Calls come from the whole dose curve; as a rule, active = well fitted inhibition curve with a large enough effect in the repeat runs; inconclusive = weak or mixed curves; inactive = no such curve, though single readings can be large or run the other way.
Respond with a class label; see T for active, F for inactive

Exercise: Which outcome was entered for the compound NCCCN1CCN(CCCN)CC1 in this test?
Solution: F

Exercise: Which outcome was entered for the compound Cc1ncc(CO)c(CN)c1O in this test?
Solution: F

Exercise: Which outcome was entered for the compound CCCNC(C)C(=O)Nc1c(C)csc1C(=O)OC (configuration not stated) in this test?
Solution: F

Exercise: Which outcome was entered for the compound CS(=O)(=O)c1ccc([C@@H](O)[C@@H](CF)NC(=O)C(Cl)Cl)cc1 in this test?
Solution: F

Exercise: Which outcome was entered for the compound Cc1ccsc1C(=CCCN1CCC[C@@H](C(=O)O)C1)c1sccc1C in this test?
Solution: F

Exercise: Which outcome was entered for the compound Nc1ccc2ccccc2c1S(=O)(=O)O in this test?
Solution: F

Exercise: Which outcome was entered for the compound CC(C)C1=CC2=CC[C@@H]3[C@](C)(CCC[C@@]3(C)C(=O)O)[C@H]2CC1 in this test?
Solution: F

Exercise: Which outcome was entered for the compound COc1ccc(Nc2ccc(OC)cc2)cc1 in this test?
Solution: F

Exercise: Which outcome was entered for the compound CC(C)(CO)[C@@H](O)C(=O)NCCC(=O)O in this test?
Solution: F

Exercise: Which outcome was entered for the compound COC(=O)N[C@H](C(=O)N[C@@H](Cc1ccccc1)[C@@H](O)CN(Cc1ccc(-c2ccccn2)cc1)NC(=O)[C@@H](NC(=O)OC)C(C)(C)C)C(C)(C)C in this test?
Solution: T

Exercise: Which outcome was entered for the compound CC(C)CC(=O)OCc1ccccc1 in this test?
Solution: F

Exercise: Which outcome was entered for the compound O=[N+]([O-])c1nccn1CO[C@@H](CO)[C@H](O)CO in this test?
Solution: F

----------
# test-method-notes: qHTS RealTime-Glo MT Cell Viability Assay in HEK293 cells - 40 hour (AID 1224874); note: % is set by controls: 0 for no effect and ±100 for the full control effect; nearly all actives have a fitted effect of over 50% in size
# condition-details: RealTime-Glo luminescence; stronger effect = lower value
Inconclusive results are not listed.
property: max response (%)
The answer is to be given in %; state only the numeric part.

Exercise: Answer with the recorded max response for the compound listed here: CCCCC1CCC(=O)O1 (stereo not drawn)
Solution: -3.25

Exercise: Answer with the recorded max response for the compound listed here: Cc1cccc(C)c1NC(=O)CN1CCCCCC1
Solution: 5.59

Exercise: Answer with the recorded max response for the compound listed here: O=Cc1ccc(O)c(O)c1O
Solution: 1.24

Exercise: Answer with the recorded max response for the compound listed here: CS(=O)(=O)c1ccc([C@@H](O)[C@@H](CF)NC(=O)C(Cl)Cl)cc1
Solution: 11.3

Exercise: Answer with the recorded max response for the compound listed here: CN1C(=O)CC(c2ccccc2)C1=O (stereo not drawn)
Solution: 11.9

Exercise: Answer with the recorded max response for the compound listed here: CCCc1c2oc(C(=O)O)cc(=O)c2cc2c(=O)cc(C(=O)O)n(CC)c12
Solution: 1.42

Exercise: Answer with the recorded max response for the compound listed here: C=CC1CO1 (stereo not drawn)
Solution: 6.13

Exercise: Answer with the recorded max response for the compound listed here: CCOC(=O)c1cc(=O)c2c(OCC(COc3cccc4oc(C(=O)OCC)cc(=O)c34)OC(=O)[C@@H](N)CCCCN)cccc2o1
Solution: 3.47

Exercise: Answer with the recorded max response for the compound listed here: O=C(O)c1ccccc1Nc1cc(Cl)ccc1C(=O)O
Solution: 2.59

Exercise: Answer with the recorded max response for the compound listed here: CCc1nnc(NS(=O)(=O)c2ccc(N)cc2)s1
Solution: 6.63

Exercise: Answer with the recorded max response for the compound listed here: O=C1N(c2ccccc2)c2ccccc2C1(Cc1ccncc1)Cc1ccncc1
Solution: 5.52

Exercise: Answer with the recorded max response for the compound listed here: OCCN(CCO)CCN(CCO)CCO
Solution: -1.3

Exercise: Answer with the recorded max response for the compound listed here: ClC(Cl)Cl
Solution: 6.53

----------
# target-or-test-system: Thyrotropin-releasing hormone receptor (Homo sapiens) (UniProt P34981)
# Sequence (P34981 whole entry, looked up): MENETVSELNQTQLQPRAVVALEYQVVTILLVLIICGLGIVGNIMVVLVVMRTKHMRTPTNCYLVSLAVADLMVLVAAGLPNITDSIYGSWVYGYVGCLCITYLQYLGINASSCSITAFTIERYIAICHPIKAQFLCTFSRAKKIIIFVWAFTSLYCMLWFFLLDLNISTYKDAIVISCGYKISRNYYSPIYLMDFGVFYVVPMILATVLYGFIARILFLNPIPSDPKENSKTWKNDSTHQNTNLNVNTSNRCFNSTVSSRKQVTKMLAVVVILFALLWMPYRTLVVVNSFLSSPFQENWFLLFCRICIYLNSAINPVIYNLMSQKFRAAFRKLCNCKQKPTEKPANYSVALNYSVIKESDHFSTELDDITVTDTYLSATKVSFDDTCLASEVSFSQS
# test-method-notes: qHTS assay to identify small molecule antagonists of the thyrotropin-releasing hormone receptor (TRHR) signaling pathway (AID 1346877); note: % is set by controls: 0 for no effect and ±100 for the full control effect
# condition-details: TRHR-HEK293, TRH-induced calcium fluorescence, antagonist mode; series mostly up to 51.3 µM
Active and inactive are the calls of the source. The call rests on the fitted dose curve; in most records, active means well fitted inhibition curve with a large enough effect in the repeat runs (not every such curve was filed as active); inconclusive means weak or mixed curves; inactive means flat fitted curve, though single readings scatter.
property: activity, negative = inhibition

// known answers, use as guide
- molecule: "COc1cc(N)c(Cl)cc1C(=O)NC1CCN(Cc2ccccc2)CC1"
  activity, negative = inhibition: "inactive"
- molecule: "NC(Cc1ccc(F)cc1)C(=O)O (stereo not drawn)"
  activity, negative = inhibition: "-1.45% [at 4.65 µM] (inactive)"
- molecule: "O=C(O)[C@@H](O)[C@H](O)[C@H](O)[C@@H](O)C(=O)O"
  activity, negative = inhibition: "inactive"
- molecule: "CN(C)CC[C@@H](c1ccc(Cl)cc1)c1ccccn1"
  activity, negative = inhibition: "inactive"
- molecule: "CCC(=O)c1ccc2c(c1)N(CCCN(C)C)c1ccccc1S2"
  activity, negative = inhibition: "inactive"

Exercise: Answer with the recorded activity, negative = inhibition for the molecule listed here: CCOC(=O)CS
Solution: inactive

Exercise: Answer with the recorded activity, negative = inhibition for the molecule listed here: Cc1onc(-c2ccccc2)c1C(=O)Cl
Solution: inactive

Exercise: Answer with the recorded activity, negative = inhibition for the molecule listed here: NC1=NCC2c3ccccc3Cc3ccccc3N12 (stereo not drawn)
Solution: inactive

Exercise: Answer with the recorded activity, negative = inhibition for the molecule listed here: CCC1(C)NC(=O)NC1=O (stereo not drawn)
Solution: inactive

Exercise: Answer with the recorded activity, negative = inhibition for the molecule listed here: CC(C)S
Solution: inactive

Exercise: Answer with the recorded activity, negative = inhibition for the molecule listed here: C[C@@H]1CN(c2c(F)c(F)c3c(=O)c(C(=O)O)cn(C4CC4)c3c2F)C[C@H](C)N1
Solution: -3.72% [at 10.5 µM] (inactive)

Exercise: Answer with the recorded activity, negative = inhibition for the molecule listed here: FC(F)(F)c1ccccc1
Solution: inactive

Exercise: Answer with the recorded activity, negative = inhibition for the molecule listed here: Cc1nnc(SCC2=C(C(=O)O)N3C(=O)[C@@H](NC(=O)Cn4cnnn4)[C@H]3SC2)s1
Solution: inactive
